Recorded EC50 GlucagonR [pM], CRE luciferase reporter gene assay values for a group of binders are listed next.
- experimental.target: human glucagon receptor (human, UniProt P47871 26-477)
- Sequence (P47871 26-477): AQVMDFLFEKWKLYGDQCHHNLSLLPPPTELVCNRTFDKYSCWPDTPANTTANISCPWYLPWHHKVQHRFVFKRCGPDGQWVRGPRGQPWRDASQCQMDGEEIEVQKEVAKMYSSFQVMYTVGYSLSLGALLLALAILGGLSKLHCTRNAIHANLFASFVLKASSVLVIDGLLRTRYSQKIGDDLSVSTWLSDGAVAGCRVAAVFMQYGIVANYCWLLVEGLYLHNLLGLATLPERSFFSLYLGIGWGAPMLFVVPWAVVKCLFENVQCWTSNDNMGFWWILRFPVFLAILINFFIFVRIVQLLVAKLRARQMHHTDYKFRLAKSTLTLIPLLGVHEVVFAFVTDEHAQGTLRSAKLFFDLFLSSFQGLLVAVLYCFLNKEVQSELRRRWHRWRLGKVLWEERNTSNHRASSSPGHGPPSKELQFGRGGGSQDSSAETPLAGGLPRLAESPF
- method.summary: cell-based or functional assay
*1 amine or outer side, *2 acyl side, *3 side chain or, on linkers, in order; H or OH if unused. Where no end group is shown, it is not given here. Side-chain parts run from the residue outwards. [ ]: non-standard residue; d: D form. The star is where a group is joined. C18 diacid = O=C(O)CCCCCCCCCCCCCCCCC(=O)*; γGlu = O=C(O)[C@H](CCC(=O)[*:2])N[*:1]; Desaminohistidyl = O=C(CCc1c[nH]cn1)*; AEEA = NCCOCCOCC(=O)O; Aib = CC(C)(N)C(=O)O
test.readout: EC50 GlucagonR [pM], CRE luciferase reporter gene assay (pM)

1. [Desaminohistidyl][Aib]HGTFTSDVSKYLEEQAAREFIAWLLK([γGlu-γGlu-Ser-Gly-Glu-Ser-Gly-C18 diacid])T (Named as peptide, not peptide amide (C-terminal acid))	84.5
2. [Desaminohistidyl][Aib]HGTFTSDVSRYLEGRAAREFIAWLLK([γGlu-γGlu-AEEA-γGlu-γGlu-C18 diacid])GAG	248
3. [Desaminohistidyl][Aib]HGTFTSDLSKYLEEQAAREFIAWLLK([Ado-Ado-γGlu-γGlu-C18 diacid])T-NH2	54.2
4. [Desaminohistidyl][Aib]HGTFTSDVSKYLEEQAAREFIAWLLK([Gly-Ser-Glu-Gly-Ser-γGlu-γGlu-C18 diacid])T-NH2	40.7
5. [Desaminohistidyl][Aib]HGTFTSDVSKYLEARAAREFIAWLLKGGG (not fully specified (residue 28); printed as Nε34-[(4S)-4-carboxy-4-[[2-[2-[2-[[2-[2-[2-[[(4S)-4-carboxy-4-[[(4S)-4-carboxy-4-(17-carboxyheptadecanoylamino)butanoyl]amino]butanoyl]amino]ethoxy]ethoxy]acetyl]amino]ethoxy]ethoxy]acetyl]amino]butanoyl]-[Imp7,Aib8,His9,Lys18,Ala22,Arg23,Arg26,Leu33,Gly36]-GLP-1-(7-37)-peptide)	39.4
6. [Desaminohistidyl][Aib]HGTFTSDVSRYLEEQAAREFIAWLLK([Gly-Ser-Glu-Gly-Ser-γGlu-γGlu-C18 diacid])T-NH2	60
7. XXHGTFTSDYSKYLEEQAAREFIAWLLKK (Imp (desamino-His) at 7; Acb at 8; Lys35 N-epsilon acylated with 17-carboxyheptadecanoyl-γGlu-γGlu-Ado-γGlu-Ado-γGlu-Ado-γGlu-; C-terminal amide (GLP-1(7-37) numbering))	78
8. [Desaminohistidyl][Aib]HGTFTSDVSRYLEEQAARK([AEEA-AEEA-γGlu-γGlu-γGlu-C18 diacid])FIAWLLR	143
